Reported activation by item:
# methodSummary: qHTS Assay for Agonists of the Thyroid Stimulating Hormone Receptor;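 note: the control signal comes from parental cells without the receptor; % of control where 0% means no effect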
# condition: HEK293-CNG-TSHR cells (CNG channel as cAMP sensor), membrane potential dye, cAMP; measured here: parental cells max response
Screen size: about 73,000 compounds; about 350 (0.48%) were called active. About 17% were inconclusive and are not listed. What follows is part of a selection rich in actives, with near analogues and random picks from the rest.
Numeric answer only, unit % assumed.

Please fill in: activation reported for Cc1ccc(S(=O)(=O)N2CCCC2CO)cc1 (stereo not given) = -3.4

Please fill in: activation reported for "c1ccc(COc2nsnc2N2CCOCC2)cc1" = 27.1

Please fill in: activation reported for "CCCCCCn1c(SCC(=O)c2ccccc2)nc2c1c(=O)[nH]c(=O)n2C" = -2.08

Please fill in: activation reported for "CO[C@H]1COC(=O)[C@@H](OCc2ccccc2)/C=C\[C@H](C)[C@@H](OC)COC(=O)[C@H](OCc2ccccc2)/C=C\[C@@H]1C" = -2.98
